test system: Escherichia coli TOP10; assay: shrunken log2 fold change of peptide-encoding DNA abundance (4.5 h post-induction vs induction); higher = less antimicrobial activity (less host growth inhibition); settings: time post-induction: 4.5 h; library: site-saturation at positions 5, 18, 19, 20
measurement label: shrunken log2 fold change

Enquiry: What value of shrunken log2 fold change has been reported for the following sequence? "RRIRVRPPRLPRPRPRPIVRPRP"
Return: -0.0635

Enquiry: What value of shrunken log2 fold change has been reported for the following sequence? "RRIRKRPPRLPRPRPRPLSRPRP"
Return: 0.254

Enquiry: What value of shrunken log2 fold change has been reported for the following sequence? "RRIRDRPPRLPRPRPRPIINPRP"
Return: 0.423

Enquiry: What value of shrunken log2 fold change has been reported for the following sequence? "RRIRFRPPRLPRPRPRPTQCPRP"
Return: 0.322

Enquiry: What value of shrunken log2 fold change has been reported for the following sequence? "RRIRCRPPRLPRPRPRPLHIPRP"
Return: -0.335

Enquiry: What value of shrunken log2 fold change has been reported for the following sequence? "RRIRMRPPRLPRPRPRPGKFPRP"
Return: 0.0419

Enquiry: What value of shrunken log2 fold change has been reported for the following sequence? "RRIRYRPPRLPRPRPRPSWKPRP"
Return: -0.111

Enquiry: What value of shrunken log2 fold change has been reported for the following sequence? "RRIRWRPPRLPRPRPRPEDAPRP"
Return: 0.00499

Enquiry: What value of shrunken log2 fold change has been reported for the following sequence? "RRIRERPPRLPRPRPRPYIQPRP"
Return: -0.184

Enquiry: What value of shrunken log2 fold change has been reported for the following sequence? "RRIRHRPPRLPRPRPRPWCVPRP"
Return: -0.386

Enquiry: What value of shrunken log2 fold change has been reported for the following sequence? "RRIRHRPPRLPRPRPRPSQFPRP"
Return: -0.247

Enquiry: What value of shrunken log2 fold change has been reported for the following sequence? "RRIRPRPPRLPRPRPRPGMMPRP"
Return: -0.111

Enquiry: What value of shrunken log2 fold change has been reported for the following sequence? "RRIRIRPPRLPRPRPRPGYIPRP"
Return: -0.752

Enquiry: What value of shrunken log2 fold change has been reported for the following sequence? "RRIRPRPPRLPRPRPRPIFGPRP"
Return: 0.0562

Enquiry: What value of shrunken log2 fold change has been reported for the following sequence? "RRIRKRPPRLPRPRPRPHTWPRP"
Return: 0.0484

###

tested on: Escherichia coli TOP10; test: shrunken log2 fold change of peptide-encoding DNA abundance (4.5 h post-induction vs induction); higher = less antimicrobial activity (less host growth inhibition); conditions: time post-induction: 4.5 h; library: site-saturation at positions 5, 18, 19, 20;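 further: peptides expressed intracellularly from a pBAD plasmid library in pooled LB shake-flask culture, induced with 0.3% L-arabinose, DNA abundance read by NGS, three biological replicates, DESeq2 with apeglm shrinkage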
measurement label: shrunken log2 fold change

Enquiry: What value of shrunken log2 fold change has been reported for the following sequence? "RRIRYRPPRLPRPRPRPFKDPRP"
Return: -0.0864

Enquiry: What value of shrunken log2 fold change has been reported for the following sequence? "RRIRARPPRLPRPRPRPDSTPRP"
Return: -0.0804

Enquiry: What value of shrunken log2 fold change has been reported for the following sequence? "RRIRDRPPRLPRPRPRPLLHPRP"
Return: 0.114

Enquiry: What value of shrunken log2 fold change has been reported for the following sequence? "RRIRQRPPRLPRPRPRPINMPRP"
Return: -0.28

Enquiry: What value of shrunken log2 fold change has been reported for the following sequence? "RRIRNRPPRLPRPRPRPNDDPRP"
Return: 0.0813

Enquiry: What value of shrunken log2 fold change has been reported for the following sequence? "RRIRARPPRLPRPRPRPFQVPRP"
Return: 0.0694

Enquiry: What value of shrunken log2 fold change has been reported for the following sequence? "RRIRSRPPRLPRPRPRPNRLPRP"
Return: -0.205

Enquiry: What value of shrunken log2 fold change has been reported for the following sequence? "RRIRERPPRLPRPRPRPGPTPRP"
Return: 0.215
